- System: T-47D breast
- experimentSummary: NCI-60 one-dose screen, 48 h
- settings: 10 µM unless noted
This is part of a sample that, as a whole, favours compounds with a hit. Of some 83,000 tested, about 20% had one in any assay. Calls of active or inactive are those of the source. How the source made its calls: active means growth percent below 10; inactive means the rest.
API: response.call in active, inactive

>  <compound>
COc1ccc(C(=S)N2CCN(c3cccc(Cl)c3)CC2)cc1

>  <groupLabel>
inactive

$$$$
>  <compound>
COc1ccc2c(c1)C(=O)/C(=C/c1cccnc1)CC2

>  <groupLabel>
inactive

$$$$
>  <compound>
Cc1[nH]c(-c2cc(N)ccc2Cl)c2c1C(=O)CCCC2

>  <groupLabel>
inactive

$$$$
>  <compound>
c1ccc(-c2cc3n4c(-c5ccccc5)nn(-c5ccccc5)c4cnc-3n2)cc1

>  <groupLabel>
inactive

$$$$
>  <compound>
CC1C(/C=N/Nc2ccccc2)C(C#N)(C#N)C1(C#N)C#N (stereo unspecified)

>  <groupLabel>
inactive

$$$$
>  <compound>
CC[C@]1(O)C[C@@H]2CN(CCc3c([nH]c4ccccc34)[C@@](C(=O)OC)(c3cc4c(cc3OC)N(C)[C@H]3[C@@](O)(C(N)=O)[C@H](O)[C@]5(CC)[C@@H]6C[C@@H]6CN6CC[C@]43[C@@H]65)C2)C1

>  <groupLabel>
inactive

$$$$
>  <compound>
NC(=NC1C2CC3CC(C2)CC1C3)Nc1ccc(I)cc1 (stereo unspecified)

>  <groupLabel>
active

$$$$
>  <compound>
O=C1/C(=C/c2ccc3c(c2)OCO3)SC(=S)N1CCc1ccc(O)cc1

>  <groupLabel>
inactive

$$$$

Please let me know the test result on file for `O=C1c2cc3c(cc2-c2c1c1ccc(F)cc1c(=O)n2C[C@H](O)[C@H](O)[C@H](O)CO)OCO3` .
active

Could you please tell me the result logged for `COc1ccc(-c2nnc(SCC(=O)c3ccc(Cl)cc3)o2)cc1` in this assay?
inactive

Hey, what did the test say about `O=C(O)COc1ccc(Cl)cc1C1CCCCC1` ?
inactive

---

- System: A549/ATCC NSCLC
- experimentSummary: NCI-60 one-dose screen, 48 h (100 = growth as untreated, 0 = no growth, -100 = all killed)
- settings: 10 µM unless noted
This is part of a sample that, as a whole, favours compounds with a hit. Of some 83,000 tested, about 20% had one in any assay. Active and inactive are the calls of the source. Rule for the calls: active = growth percent below 10; inactive = the rest.
metricName: growth

// below: answered compounds
>  <compound>
COC(=O)[C@]12CCC(C)(C)C[C@H]1[C@H]1C(=O)C[C@@H]3[C@@]4(C)c5c([nH]c6ccccc6c5=O)C(C)(C)[C@@H]4CC[C@@]3(C)[C@]1(C)CC2

>  <growth>
34.8% (inactive)

$$$$
>  <compound>
O=[N+]([O-])c1cnc(N2CCN(CC3CC3)CC2)nc1N1CCN(CC2CC2)CC1

>  <growth>
104% (inactive)

$$$$

Notebook: `Cn1ccnc1C(=O)/C=C/c1ccccc1` , growth read as 33.7% (inactive)

// growth lookup, compound = `CCN=C1C=CC(=C(c2ccc(N)cc2)c2ccc(N(CC)CC)c(C)c2)C=C1` , result: 10.3% (inactive)

Consider `COc1ccc(C(=O)/C=C/c2cccnc2Nc2cc(OC)c(OC)c(OC)c2)cc1` . Its measured growth is 23.6% (inactive)

Reported growth ( `OCCNc1nccc(N2CCN(c3ccnc4cc(Cl)ccc34)CC2)n1` ) = 80.6% (inactive)

// growth lookup, compound = `O=C1/C(=C/c2ccccc2)SC(=S)N1CCc1ccc(O)cc1` , result: 93.6% (inactive)

Short answer for `CCOc1nc(-c2ccccc2)cc2c(O)c(C(=O)N/N=C/c3ccc(O)cc3O)[nH]c(=O)c12` : growth was 46.2% (inactive)

Note to self: growth recorded for Cc1ccc2c(C(C[N+](=O)[O-])c3ccccc3)c(-c3ccccc3)[nH]c2c1 (stereo unspecified) was 28.6% [9.5 µM] (inactive)

Short answer for `COc1cc2nnc3c4cccnc4[nH]c3c2cc1OC` : growth was 47.2% (inactive)

compound `O=C(N=Nc1c(O)[nH]c2ccccc12)c1cc(-c2ccccc2)on1` , growth observed: 107% (inactive)

Form field growth, entry `O=C(N/N=C/c1c[nH]c2ccccc12)c1cc(-c2ccccc2)on1` : 96.7% (inactive)

// sample `CCCOc1cc2ccccc2cc1C(=O)Nc1nc(N)c2c(ccc3nccc32)[nH]1` , its growth was -70.3% (active)

Form field growth, entry `FC(F)(F)Oc1ccc2nc3nc4ccc[nH]c4cc3c2c1` : 64.5% (inactive)
